Overview of reported logP across a group of molecules:
# assayExplanation: Partition coefficient (logP)
# Type: physicochemical
# conditionSet: octanol/water
// no unit, no text: just the number

molecule | recordedMetric | recordedValue
CCCCOC(=O)c1ccc(-c2ccc(OS(N)(=O)=O)cc2)cc1 | logP | 4.38
N#Cc1ccc(-c2ccc(OS(N)(=O)=O)cc2)cc1 | logP | 3.48

Notebook: "CCCOC(=O)c1ccc(-c2ccc(OS(N)(=O)=O)cc2)cc1" , logP read as 3.99

The molecule NS(=O)(=O)Oc1ccc2c3c(c(=O)oc2c1)CCCCC3 [IROSUSTAT] showed logP equal to 2.65

Reported logP for "NS(=O)(=O)Oc1ccc(-c2ccccc2)cc1" was 3.45

Input C[C@]12CC[C@@H]3c4ccc(OS(N)(=O)=O)cc4CCC3[C@@H]1CCC2=O (single isomer, unassigned) [EMATE] . Output logP: 3.87

"Cc1cc(=O)oc2cc(OS(N)(=O)=O)ccc12" has a reported logP of 1.7

Lab note: measured logP of "COC(=O)c1ccc(-c2ccc(OS(N)(=O)=O)cc2)cc1" was 3.18

Measured logP of "CCOC(=O)c1ccc(-c2ccc(OS(N)(=O)=O)cc2)cc1" : 3.52
